Give measured Cmax at 24 h for each item. Keep answers brief.
Assay: Mouse plasma pharmacokinetics after oral dose
Assay type: in vivo, male C57BL/6 mice
Conditions: male, C57BL/6, mouse, po; plasma, prodrug, p.o. 10 mg/kg
Give just the number in ng/mL; leave the unit off.

Would you kindly share the measured Cmax at 24 h for `CCCCCCCCCCCCCCCCSCCCOP(=O)(O)CO[C@H](C)Cn1cnc2c(N)ncnc21.N` ? 73.3

Would you kindly share the measured Cmax at 24 h for C[C@H](Cn1cnc2c(N)ncnc21)OCP(=O)(O)OCCCSCCCCCCCCCCCCC1CCCCC1.N [16h] ? 195

Would you kindly share the measured Cmax at 24 h for C[C@H](Cn1cnc2c(N)ncnc21)OCP(=O)(O)OCCCSCCCCCCCCCCCCc1ccc(F)cc1.N [16g] ? 58.6

###

System: HepaRG cells
Test: HepaRG cellular uptake
Conditions: 20 µM, 0.5 h
Give measured mean prodrug concentration in HepaRG cells for each item. Keep answers brief.
# include the unit after the value

Would you kindly share the measured mean prodrug concentration in HepaRG cells for C[C@H](Cn1cnc2c(N)ncnc21)OCP(=O)(O)OCCCOCCCCCCCCCCCCCCCC(F)(F)F.N [compound 1] ? 141.43 ng/mL

Would you kindly share the measured mean prodrug concentration in HepaRG cells for CCCCCCCCCCCCCCCCSCCCOP(=O)(O)CO[C@H](C)Cn1cnc2c(N)ncnc21.N [2a] ? 467.27 ng/mL

Would you kindly share the measured mean prodrug concentration in HepaRG cells for C[C@H](Cn1cnc2c(N)ncnc21)OCP(=O)(O)OCCCSCCCCCCCCCCCCC1CCCCC1.N [16h] ? 896.16 ng/mL

Would you kindly share the measured mean prodrug concentration in HepaRG cells for C[C@H](Cn1cnc2c(N)ncnc21)OCP(=O)(O)OCCCSCCCCCCCCCCCCC#CC(C)(C)C.N [15e] ? 169.76 ng/mL

###

Assay: Mouse plasma pharmacokinetics after intravenous dose
Format: in vivo, male C57BL/6 mice
Settings: male, C57BL/6, mouse, iv, i.v. 3 mg/kg, 8 h, read-out: mean prodrug concentration in plasma
readout-kind: concentration at 8 h (ng/mL)
Give just the number in ng/mL; leave the unit off.

Would you kindly share the measured concentration at 8 h for C[C@H](Cn1cnc2c(N)ncnc21)OCP(=O)(O)OCCCSCCCCCCCCCCCCC1CCCCC1.N [16h] ? 1.41

Would you kindly share the measured concentration at 8 h for C[C@H](Cn1cnc2c(N)ncnc21)OCP(=O)(O)OCCCSCCCCCCCCCCCCc1ccc(F)cc1.N [16g] ? 3.12

Would you kindly share the measured concentration at 8 h for CCCCCCCCCCCCCCCCSCCCOP(=O)(O)CO[C@H](C)Cn1cnc2c(N)ncnc21.N [2a] ? 1.21

###

System: HepaRG cells
Test: HepaRG cellular metabolic stability
Conditions: calculated from cellular t1/2
readout-kind: HepaRG Clint,u (μL/min/million cells)
Give just the number in μL/min/million cells; leave the unit off.

Query HepaRG Clint,u on HepaRG cells for `CCCCCCCCCCCCCCCCOCCCOP(=O)(O)CO[C@H](C)Cn1cnc2c(N)ncnc21` 28.5

Query HepaRG Clint,u on HepaRG cells for C[C@H](Cn1cnc2c(N)ncnc21)OCP(=O)(O)OCCCSCCCCCCCCCCCCC#CC(C)(C)C.N [15e] 18.9

Query HepaRG Clint,u on HepaRG cells for C[C@H](Cn1cnc2c(N)ncnc21)OCP(=O)(O)OCCCSCCCCCCCCCCCCC1CCCCC1.N [16h] 17.8

Query HepaRG Clint,u on HepaRG cells for `C[C@H](Cn1cnc2c(N)ncnc21)OCP(=O)(O)OCCCOCCCCCCCCCCCCCCCC(F)(F)F.N` 29.4

###

Give measured Tmax at 8 h for each item. Keep answers brief.
Assay: Mouse plasma pharmacokinetics after intravenous dose
Type: in vivo, male C57BL/6 mice
Settings: male, C57BL/6, mouse, iv, prodrug, i.v. 3 mg/kg
Give just the number in min; leave the unit off.

Would you kindly share the measured Tmax at 8 h for C[C@H](Cn1cnc2c(N)ncnc21)OCP(=O)(O)OCCCSCCCCCCCCCCCCC1CCCCC1.N [16h] ? 6

Would you kindly share the measured Tmax at 8 h for `CCCCCCCCCCCCCCCCSCCCOP(=O)(O)CO[C@H](C)Cn1cnc2c(N)ncnc21.N` ? 6

Would you kindly share the measured Tmax at 8 h for C[C@H](Cn1cnc2c(N)ncnc21)OCP(=O)(O)OCCCSCCCCCCCCCCCCc1ccc(F)cc1.N [16g] ? 6

###

Give measured mean prodrug concentration in HepaRG cells for each item. Keep answers brief.
System: HepaRG cells
Test: HepaRG cellular uptake
Conditions: 20 µM, 2 h
Give just the number in ng/mL; leave the unit off.

Would you kindly share the measured mean prodrug concentration in HepaRG cells for C[C@H](Cn1cnc2c(N)ncnc21)OCP(=O)(O)OCCCSCCCCCCCCCCCCC#CC(C)(C)C.N [15e] ? 233.02

Would you kindly share the measured mean prodrug concentration in HepaRG cells for C[C@H](Cn1cnc2c(N)ncnc21)OCP(=O)(O)OCCCOCCCCCCCCCCCCCCCC(F)(F)F.N [compound 1] ? 319.83

Would you kindly share the measured mean prodrug concentration in HepaRG cells for CCCCCCCCCCCCCCCCOCCCOP(=O)(O)CO[C@H](C)Cn1cnc2c(N)ncnc21 [TXL, tenofovir exalidex] ? 378.66

Would you kindly share the measured mean prodrug concentration in HepaRG cells for CCCCCCCCCCCCCCCCSCCCOP(=O)(O)CO[C@H](C)Cn1cnc2c(N)ncnc21.N [2a] ? 676.9

Would you kindly share the measured mean prodrug concentration in HepaRG cells for C[C@H](Cn1cnc2c(N)ncnc21)OCP(=O)(O)OCCCSCCCCCCCCCCCCC1CCCCC1.N [16h] ? 1178.12

Would you kindly share the measured mean prodrug concentration in HepaRG cells for C[C@H](Cn1cnc2c(N)ncnc21)OCP(=O)(O)OCCCSCCCCCCCCCCCCc1ccc(F)cc1.N [16g] ? 178.18

###

Tested on: HepaRG cells
Assay: HepaRG cellular metabolic stability
Conditions: after 3 h loading at 20 μM, 37 °C
Give measured HepaRG t1/2 for each item. Keep answers brief.
Give just the number in min; leave the unit off.

Would you kindly share the measured HepaRG t1/2 for C[C@H](Cn1cnc2c(N)ncnc21)OCP(=O)(O)OCCCOCCCCCCCCCCCCCCCC(F)(F)F.N [compound 1] ? 42.9

Would you kindly share the measured HepaRG t1/2 for C[C@H](Cn1cnc2c(N)ncnc21)OCP(=O)(O)OCCCSCCCCCCCCCCCCc1ccc(F)cc1.N [16g] ? 46.7

Would you kindly share the measured HepaRG t1/2 for C[C@H](Cn1cnc2c(N)ncnc21)OCP(=O)(O)OCCCSCCCCCCCCCCCCC1CCCCC1.N [16h] ? 71.0

Would you kindly share the measured HepaRG t1/2 for CCCCCCCCCCCCCCCCOCCCOP(=O)(O)CO[C@H](C)Cn1cnc2c(N)ncnc21 [TXL, tenofovir exalidex] ? 44.3

Would you kindly share the measured HepaRG t1/2 for C[C@H](Cn1cnc2c(N)ncnc21)OCP(=O)(O)OCCCSCCCCCCCCCCCCCCC(C)(C)C.N [16e] ? 123.1

Would you kindly share the measured HepaRG t1/2 for C[C@H](Cn1cnc2c(N)ncnc21)OCP(=O)(O)OCCCSCCCCCCCCCCCCC#CC(C)(C)C.N [15e] ? 66.6

###

Give measured mean prodrug concentration in HepaRG cells for each item. Keep answers brief.
Tested on: HepaRG cells
Test: HepaRG cellular uptake
Details: 20 µM, 5 h

Would you kindly share the measured mean prodrug concentration in HepaRG cells for C[C@H](Cn1cnc2c(N)ncnc21)OCP(=O)(O)OCCCSCCCCCCCCCCCCc1ccc(F)cc1.N [16g] ? 203.98 ng/mL

Would you kindly share the measured mean prodrug concentration in HepaRG cells for `CCCCCCCCCCCCCCCCOCCCOP(=O)(O)CO[C@H](C)Cn1cnc2c(N)ncnc21` ? 468.27 ng/mL

Would you kindly share the measured mean prodrug concentration in HepaRG cells for C[C@H](Cn1cnc2c(N)ncnc21)OCP(=O)(O)OCCCSCCCCCCCCCCCCC1CCCCC1.N [16h] ? 1533.37 ng/mL

Would you kindly share the measured mean prodrug concentration in HepaRG cells for `C[C@H](Cn1cnc2c(N)ncnc21)OCP(=O)(O)OCCCOCCCCCCCCCCCCCCCC(F)(F)F.N` ? 321.56 ng/mL

Would you kindly share the measured mean prodrug concentration in HepaRG cells for `CCCCCCCCCCCCCCCCSCCCOP(=O)(O)CO[C@H](C)Cn1cnc2c(N)ncnc21.N` ? 1004.64 ng/mL

###

Give measured remaining at 4 h, 3 μM for each item. Keep answers brief.
Test: Human plasma stability
Format: in vitro ADME
Settings: both sexes, human, plasma, relative percent remaining at 240 min

Would you kindly share the measured remaining at 4 h, 3 μM for C[C@H](Cn1cnc2c(N)ncnc21)OCP(=O)(O)OCCCSCCCCCCCCCCCCc1ccc(F)cc1.N [16g] ? > 95%

Would you kindly share the measured remaining at 4 h, 3 μM for C[C@H](Cn1cnc2c(N)ncnc21)OCP(=O)(O)OCCCSCCCCCCCCCCCCC1CCCCC1.N [16h] ? > 95%

Would you kindly share the measured remaining at 4 h, 3 μM for `CCCCCCCCCCCCCCCCSCCCOP(=O)(O)CO[C@H](C)Cn1cnc2c(N)ncnc21.N` ? 95%
